# testProtocol: compounds binding Alexa647 anti-His antibody – biochemical, small-molecule microarray, 635 nm fluorescence, artefact control for SMM control protein annotation, primary screen (AID 1128);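 further: score merges feature fluorescence with signal-to-noise for each printed compound spot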
# measurementParameters: higher = more signal
assayReadout: composite z-score
Answers are plain numbers.

compound	observedValue
Cc1ccc(S[C@]2(C(=O)NCc3ccccc3)CC(=O)N(C3CCCCC3)[C@@H]2c2ccc(CO)cc2I)cc1	0.731
COc1ccc([C@H]2OC[C@@H]3C[C@H](Cc4ccccc4)C(=O)N32)cc1	0.606
COC(=O)[C@@]1(Cc2ccc(OC)cc2)[C@H]2c3cc(C(=O)N4CCCC4)n(CCO)c3C[C@H]2CN1C(=O)c1ccccc1	0.603
CCCCCCc1nc(Cc2cc(OC)c(OC)c(OC)c2)cc2c1[Si](C(C)C)(C(C)C)OC2	-0.215
O=C(NCCN1CCOCC1)[C@@H]1c2ccccc2C(=O)N(C2Cc3ccccc3C2)[C@H]1c1ccc(CO)cc1	3.03

Quick request: composite z-score for each listed item, please.
1. CCOC(=O)C[C@H]1[C@H](OC(=O)c2ccc(-c3ccccc3)cc2)[C@@H](NC(=O)CC(C)C)c2cc(OCCCO)ccc2N1C(=O)c1ccc2ccccc2n1
2. COC(=O)[C@@]1(Cc2ccc(F)cc2)[C@H]2c3cc(C(=O)N4CCCC4)n(Cc4ccc(C)c(F)c4F)c3C[C@H]2CN1C(=O)c1ccccc1
3. COc1ccc([Si](C)(C)[C@@H]2[C@@H](CCO)O[C@]3(C(=O)N(Cc4ccccc4)c4ccc(N5CCOC5=O)cc43)[C@H]2C)cc1

[A]
[-0.282, 1.39, 0.515]

Quick request: composite z-score for each listed item, please.
1. NC(=O)[C@H]1[C@@H]2C(=O)O[C@@H](c3ccccc3)[C@@H](c3ccccc3)N2[C@@H](c2ccc(OCCO)cc2)[C@]12C(=O)Nc1ccc(C#CCCO)cc12
2. COC(=O)[C@@H]1N=C(c2ccc(OCCCO)cc2)O[C@@H]1C
3. CCC#CCN(Cc1ccccc1Br)[C@H](/C=C/C1CC1)[C@@H](O)Cc1ccccc1
4. C=CCC(OC(C)=O)[C@@H]1[C@@H](N(Cc2ccc(-c3ccccc3)cc2)C(=O)c2ccc(-c3ccccc3)cc2)c2cc(OCCCO)ccc2N1C(=O)c1ccc2ccccc2c1 (some centres undefined)
5. COC(=O)C1=CC(CCCO)=CC(c2cccs2)N(Cc2cccc(OC(F)(F)F)c2)C=C1C(=O)OC (centres undefined)

[A]
1: 0.92; 2: 0.217; 3: 0.251; 4: -0.162; 5: 1.51
